Reported pKd by item:
# System: T1, Inactive-C1s (Homo sapiens, UniProt P09871)
# T1 construct: proenzyme (pro-C1s); also called pro-C1s
# T1 sequence (single chain, looked up): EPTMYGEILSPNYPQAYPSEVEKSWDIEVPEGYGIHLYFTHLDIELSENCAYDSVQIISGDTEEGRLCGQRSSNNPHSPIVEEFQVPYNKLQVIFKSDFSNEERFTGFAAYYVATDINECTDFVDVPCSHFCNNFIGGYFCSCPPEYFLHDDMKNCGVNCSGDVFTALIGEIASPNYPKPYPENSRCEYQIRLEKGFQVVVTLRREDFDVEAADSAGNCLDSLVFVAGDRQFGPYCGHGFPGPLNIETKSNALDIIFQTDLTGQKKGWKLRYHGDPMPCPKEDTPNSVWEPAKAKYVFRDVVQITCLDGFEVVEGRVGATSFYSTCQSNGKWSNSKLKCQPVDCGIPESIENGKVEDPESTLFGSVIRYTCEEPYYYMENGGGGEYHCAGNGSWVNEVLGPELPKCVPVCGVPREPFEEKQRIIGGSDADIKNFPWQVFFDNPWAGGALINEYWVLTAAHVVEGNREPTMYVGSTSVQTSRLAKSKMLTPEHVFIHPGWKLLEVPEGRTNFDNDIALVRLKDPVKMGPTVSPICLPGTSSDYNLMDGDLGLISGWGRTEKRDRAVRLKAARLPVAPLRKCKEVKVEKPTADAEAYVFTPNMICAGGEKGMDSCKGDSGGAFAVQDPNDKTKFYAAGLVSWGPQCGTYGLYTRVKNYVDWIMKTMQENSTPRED
# Assay Notes: kinetic binding measurement, method not stated; Table 10, pro-C1s
# log scale: pKd equals minus log10 of the concentration in mol/L

| Binder | pKd |
| --- | --- |
| VH3/Vk3 (antibody, V domains shown, member of group m7; also called VH3/Vκ3; VH variant 3 + Vk variant 3) VH: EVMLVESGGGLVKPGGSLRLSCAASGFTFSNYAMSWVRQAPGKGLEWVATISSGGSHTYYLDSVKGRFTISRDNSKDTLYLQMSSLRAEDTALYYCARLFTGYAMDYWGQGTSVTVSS VL: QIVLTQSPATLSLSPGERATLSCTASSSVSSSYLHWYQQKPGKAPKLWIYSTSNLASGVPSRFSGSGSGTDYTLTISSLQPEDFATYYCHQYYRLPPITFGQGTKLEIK | 9.48 |
| VH4/Vk1 (antibody, V domains shown, member of group m7; also called VH4/Vκ1; VH variant 4 + Vk variant 1) VH: EVQLVESGGGLVKPGGSLRLSCAASGFTFSNYAMSWVRQAPGKGLEWVATISSGGSHTYYLDSVKGRFTISRDNSKNTLYLQMNSLRAEDTALYYCARLFTGYAMDYWGQGTLVTVSS VL: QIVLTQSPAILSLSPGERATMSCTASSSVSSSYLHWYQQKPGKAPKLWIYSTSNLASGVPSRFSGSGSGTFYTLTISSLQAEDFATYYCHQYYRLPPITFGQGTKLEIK | 9.54 |
| VH2/Vk3 (antibody, V domains shown, member of group m7; also called VH2/Vκ3; VH variant 2 + Vk variant 3) VH: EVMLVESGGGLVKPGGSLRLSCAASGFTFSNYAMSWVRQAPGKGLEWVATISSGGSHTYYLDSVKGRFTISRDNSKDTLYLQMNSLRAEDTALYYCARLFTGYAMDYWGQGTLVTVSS VL: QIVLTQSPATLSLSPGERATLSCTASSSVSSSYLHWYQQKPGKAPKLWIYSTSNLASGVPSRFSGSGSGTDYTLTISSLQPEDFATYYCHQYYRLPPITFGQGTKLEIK | 9.55 |
| VH2/Vk2 (antibody, V domains shown, member of group m7; also called VH2/Vκ2; VH variant 2 + Vk variant 2) VH: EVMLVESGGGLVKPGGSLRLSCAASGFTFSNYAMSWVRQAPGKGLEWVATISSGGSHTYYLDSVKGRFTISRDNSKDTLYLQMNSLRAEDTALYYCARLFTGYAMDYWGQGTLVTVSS VL: QIVLTQSPATLSLSPGERATMSCTASSSVSSSYLHWYQQKPGKAPKLWIYSTSNLASGVPSRFSGSGSGTDYTLTISSLQPEDFATYYCHQYYRLPPITFGQGTKLEIK | 9.57 |

Let's switch to this binder now.
Which pKd reading was recorded for the binder VH4/Vk3 (antibody, V domains shown, member of group m7; also called VH4/Vκ3; VH variant 4 + Vk variant 3) VH: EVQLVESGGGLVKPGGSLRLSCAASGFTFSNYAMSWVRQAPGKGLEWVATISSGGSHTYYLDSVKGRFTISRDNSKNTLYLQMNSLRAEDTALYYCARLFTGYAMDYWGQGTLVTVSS VL: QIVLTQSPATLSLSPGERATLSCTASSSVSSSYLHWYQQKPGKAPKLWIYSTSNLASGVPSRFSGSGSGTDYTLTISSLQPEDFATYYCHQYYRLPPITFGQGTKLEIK ?
9.56

Just for reference, patent US20150104448A1 is where these values come from.
